Attribution: paper PMC4132743

TARGET: T1, DnaT (wt, full length) (Escherichia coli K12, UniProt P0A8J2 1-179)
T1 sequence: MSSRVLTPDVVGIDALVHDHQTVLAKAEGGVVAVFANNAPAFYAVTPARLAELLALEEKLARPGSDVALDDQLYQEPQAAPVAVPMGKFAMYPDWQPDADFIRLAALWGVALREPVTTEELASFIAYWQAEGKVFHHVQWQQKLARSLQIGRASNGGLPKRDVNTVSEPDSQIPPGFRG
ASSAY_TEXT: fluorescence polarization; apparent; Hill h=2.3±0.2; Buffer A: 20 mM Tris-HCl pH 7.5, 40 mM NaCl, 5% v/v glycerol, 20 C; FPA 200 nM 5'-FAM DNA, Hill fit; EMSA 30 min at 20 C, gels in 0.5x TBE at 4 C
CONDITION_SUMMARY: protein: recombinant; tags: His-MBP removed by TEV; label: 5'-FAM
MEASURED_PROPERTY: Kd (nM)
Please respond with the number in nM and leave the unit unwritten.

Input: # query: Kd of entry TGGGTGGGTGGGTGGGTGGGTGGGTGGG (ssDNA) [5F-d(TGGG)7]
Output: 597
